// MIC lookup, one value per entry
test system: Pichia kudriavzevii; assay: Antifungal activity against Candida krusei Berkout KCCM 11655 after 1 day by 2-fold broth dilution method; format: functional; conditions: KCCM 11655, 24 h

Field: example entries. Status: answers known.
SMILES_STR: O=C1C(Sc2ccc(Cl)cc2)=C(Sc2ccc(Cl)cc2)C(=O)c2[nH]ccc21
MIC: 25 µg/mL
//
SMILES_STR: Cc1cccc(SC2=C(Sc3cccc(C)c3)C(=O)c3[nH]ccc3C2=O)c1
MIC: > 100 µg/mL

Need MIC of "O=C1C(Sc2cccc(Cl)c2)=C(Sc2cccc(Cl)c2)C(=O)c2[nH]ccc21" , thanks. 25 µg/mL

Record: "COC(=O)c1cn(C)c2c1C(=O)C(C)=C(C)C2=O" 3.2 µg/mL

Same read-out for "COC(=O)c1cn(-c2ccc(C)c(C)c2)c2c1C(=O)C(C)=C(C)C2=O" ? 0.8 µg/mL

----------
tested on: Pichia kudriavzevii; assay: Antifungal activity against Candida krusei Berkout KCCM 11655 after 1 day by 2-fold broth dilution method; type: functional; details: KCCM 11655, 24 h
OBSERVED_PROPERTY: MIC

COMPOUND: Cc1ccc(SC2=C(Sc3ccc(C)c(C)c3)C(=O)c3[nH]ccc3C2=O)cc1C
RESULT: > 100 µg/mL
//
COMPOUND: O=C1C(Sc2ccccc2)=C(Sc2ccccc2)C(=O)c2[nH]ccc21
RESULT: > 100 µg/mL
//
COMPOUND: O=C1C(Sc2ccc(Br)cc2)=C(Sc2ccc(Br)cc2)C(=O)c2[nH]ccc21
RESULT: > 100 µg/mL
//
COMPOUND: COC(=O)c1cn(-c2ccc(C)cc2)c2c1C(=O)C(C)=C(C)C2=O
RESULT: 3.2 µg/mL
//
COMPOUND: Nc1nc(=O)[nH]cc1F [FLUCYTOSINE]
RESULT: 6.3 µg/mL

As a next step, examine the compound that follows.
Using the record for "CCc1ccc(-n2cc(C(=O)OC)c3c2C(=O)C(C)=C(C)C3=O)cc1" , report its MIC. 50 µg/mL
